folding stability dG unfold values, listed per item
- procedure text: folding stability dG unfold (combined trypsin and chymotrypsin); higher = more stable

1) SAGGTRTIWFPVDDIREALPPDNIKKVEVEPVGPENNWYKVTIEFPDYKIEIQYYPEEPGMFMVTITDSAGG [r13_942_TrROS]    2.13 kcal/mol
2) SAGGSTVVTEVSVSPGNPTLTLDSKTPDGKVVAKRVAAPADATATFEVKQTINGNPVITTVTQAPEASAGGS [r16_672_JUSTAS]    < -1 kcal/mol
3) SLSPSTPISSEEEAKEAAEKLAEEVREELGEDLPIVVDIERKELEDGTIVVKFTFYVPETGEKLLEVEVGSA [r9_794_JUSTAS]    1.27 kcal/mol
4) KTITIIIPMTPEQIEELAKALAEKLGLSEEEVEVVKVEKIKNEDGELYVKITIKLKETGKEITIIVPLKDLS [r1_21_TrROS_Hall]    2.8 kcal/mol
5) SAGGSAGGSAGGAIVTTTTTKAPVFAPDGTVVAEITTTTVTVILPETPPSLLPEVLERLASAGGSAGGSAGG [r7_450_JUSTAS]    0.681 kcal/mol
6) SAGGSAGGSMTAEEIAEKFPGLPPEQIKNIPIERHPDGYMTVNIEHRGPNGNKQEQQVEIPVDSAGGSAGGS [r12_1050_TrROS]    0.483 kcal/mol

Let us examine a further case.
The recorded folding stability dG unfold for SAGGSALKIMVEPDPEDGTVRVWFMIPNPENGEEFMVQAEIDPNGKIEDVEVYPNGNMIWITFKLPSAGGSA [r15_557_TrROS] is 2.96 kcal/mol

###

- procedure text: folding stability dG unfold (combined trypsin and chymotrypsin); higher = more stable
Classification field: enter 1 for folding stability dG unfold values not below 1 kcal/mol, 0 for values below it.

1) SKVKIVKVEYDKETNVVTVTIYDEKTKKKIEIRYTPGKVEIVVEIDGKKLVLKFKTKEEALEAAKKLLKKSA [r9_527_TrROS_Hall]    1

Kindly consider the entry below.
Prompt line: Does the sequence SAGGSAGGSADIELLGESVDPATGRSSKTFQAPGKIIVETTAPDGTKTTSVVDPNSNVTIPLSAGGSAGGSA [r18_230_JUSTAS] have recorded folding stability dG unfold that is 1 kcal/mol or more?
Response line: 0

###

- procedure text: folding stability dG unfold (combined trypsin and chymotrypsin); higher = more stable
observable: folding stability dG unfold (kcal/mol)
Respond numerically; units are kcal/mol and should not be typed.

Below: 3 sequences and their reported folding stability dG unfold.
1) SAGGPKVVRIRYTMPPDQARDFIEELFGRPMSADDIADKLPPGFKVGIRAHPNPNGHVTFEIWIKLPDSAGG [r13_869_TrROS]    2.93
2) SAGGMPVVKVTLRVELPETGETVDVTLYVDPSVPEEYLERLVRRVAEEVARLLRLPPPPVPPRPDELSAGGS [r16_191_TrMRF]    3.52
3) SAGGSAGGSAGDDGDKKPEVKVKVKIEPTIIPSPNGELMLMWTLEIEYPGNGEKREFTFMSAGGSAGGSAGG [r17_59_TrROS]    1.58

The recorded folding stability dG unfold for SAGGSVDVSYDPSTGVVTVTIPSPTGSIGEEEVERVARELKEKYPNVTVSFTPSPGPAVTVTITIPGGSAGG [r13_291_JUSTAS] is 2.08

The recorded folding stability dG unfold for SAGGSAGGMTFTFPPGARVRIAIYNKNGELIEEREIDEPGAKITIEKDEETGEWRIVSIELLEPSAGGSAGG [r6_523_TrROS_Hall] is 3.45

The recorded folding stability dG unfold for SAGEVELKIVLPKEEIEKILEALRKLAEEAGLEVEVEKIEKKEDGYYVITVTVKFKETEKEIKIEIIIPSAG [r5_41_TrROS_Hall] is 2.69

###

- procedure text: folding stability dG unfold (combined trypsin and chymotrypsin); higher = more stable
observable: folding stability dG unfold (kcal/mol)
Respond numerically; units are kcal/mol and should not be typed.

Below: 5 sequences and their reported folding stability dG unfold.
1. SAMSLTIETDGSLEDVIAALKAFLEANPNVPFIISPPNGEVKVIDLGLADKILVIPDPDGKVRITVINPSAG [r14_807_TrMRF]    1.75
2. SAGGSAGGSAGGSMPTYRITVEVDGKKYTITVREGMSPEEIAKRLKELYPNLTVKIEPVSAGGSAGGSAGGS [r4_155_TrROS_Hall]    4.04
3. SAGGSAMKITLKTKDGKEIEIEVEEKTNENGEKYLVLKIKDKKTNKEYTIVMSKEELEELLKKLLSSAGGSA [r15_92_TrROS_Hall]    5.55
4. SEGSVRLEFTFTLPDGTRLTVEVTVHYDAATGEFHVSVSVRVEPLPDTSRPWEERPVRLPDGTWVSAADLSA [r9_898_TrMRF]    2.5
5. SAGGMKTFTLENPPLAPPDRPLGGSTLKLPDGTVLVRINLPSGETILLPSYEELEKLKASGEPVSVTASSAG [r5_42_JUSTAS]    0.348

The recorded folding stability dG unfold for SAGGKMVKIKIVVEVKVEEEVKEGEKVETFKVELTIELPEEEVEKLKAELEKLFPDVKIVEIEKVEPSAGGS [r8_490_TrROS_Hall] is 3.7

The recorded folding stability dG unfold for SAGGDLEAKPFEITFVIKAKPFPTPDGRLVETPEKVFKLKVLVVRGPNETRLFVFDEDGNLLFTSNLSAGGS [r16_92_TrMRF] is 3.39

The recorded folding stability dG unfold for SAGWIIRITLPDNGRTIEIDFENGYIIKITSPDEGKPRVIPIPPDDIREWIKELFPGPVRIVEIYPLPKSAG [r5_519_TrROS] is 2.69

The recorded folding stability dG unfold for SAGGDDKWKIEIDIQPHDDYWVITARIRDPNGKERERMFMMPPDNIKKILNELPPEIEDIEVHRVPNSAGGS [r16_298_TrROS] is 2.53

The recorded folding stability dG unfold for SAGGSAGGSAVKIKIEQLGPGYFHITIEQEMMYPDGKSRKMTMTMMFKVNAPPNDPALRELLSAGGSAGGSA [r18_215_TrROS] is 2.97

The recorded folding stability dG unfold for SAMVVSEELSPEGTRTTTTFNPATGTSTTTTTPIPEEPPLPPVSIPTSLSPEEREALREELEAAGVPVVLGS [r1_242_JUSTAS] is 0.652

The recorded folding stability dG unfold for SAGGSAGGSAGMYTVSPVGSGGGGSMIRIENPETGEVIELDFDSEEEAAAAAEELKEKLASAGGSAGGSAGG [r11_848_JUSTAS] is -0.22

The recorded folding stability dG unfold for SAKKTITLTITNEDGSTFTITITDNKITITNKDNGLVAEAEILPDGTIKLKIYNKNGELIAEITLKIKDSAG [r14_213_TrROS_Hall] is 4.09

The recorded folding stability dG unfold for SAGGSAGKKPVEFKVKIMIFNPENGDMYMIEMTITIDPDGQIKIKIKLPDPPRLPPGMVIFIMVYISAGGSA [r15_488_TrROS] is 5.01

###

- procedure text: folding stability dG unfold (combined trypsin and chymotrypsin); higher = more stable
observable: folding stability dG unfold (kcal/mol)
Respond numerically; units are kcal/mol and should not be typed.

1. SAGGSAMFYLLKVELPDGKVLEIRIEATPEEKEEFVEKIKSHPEVKSVELEPISKEEAEELGFEEISAGGSA [r15_39_TrMRF]    3.08
2. SAGGMVEIDPNPRVITVTDPSSSKVTKLNLPFPPDEVEKVTVLPDGTIAVYVPATGETIEVPLSELGSAGGS [r16_410_JUSTAS]    -0.774
3. SAGGSAGGSGMKPAKVLKVEEFFDPKNNTSFKKVEAELPDRKITLELPPGEPVDENSTILVEESAGGSAGGS [r20_49_JUSTAS]    -0.759
4. SAGMGSDVPVLTAVLSVLNPETGEEVTIEVPGRNDYGEGKLIRPVSPEDLLAAALAVADALLKDPSLKASAG [r5_426_TrMRF]    0.804
5. SAGGSAGGSSLEEIAKKLGLKPGMRVRLSDGKVLEVPSLDDLKAALEAGLSLEELKKIEIEPVSAGGSAGGS [r12_430_TrROS_Hall]    1.42

The recorded folding stability dG unfold for SAGGSAGGSSPITIPIPLSELSEETLKKIAEENPEGETPIKIIKPDGTPVTIVVKPGGEIIGASAGGSAGGS [r12_1054_JUSTAS] is 1.01

The recorded folding stability dG unfold for SMKPPVVEIKAKVVEVKEVNGKLYVKVEITEIKDAPPEVKELIKEGKTILVEVKPGEEVKEGDEVTIKIVSA [r9_557_TrROS_Hall] is 2.32

The recorded folding stability dG unfold for SAGGSAGGSAGLDNIKPEELKKLFPGYKVYLLKVEEVGGKLKVDVKILKYNPSTNTWTPESAGGSAGGSAGG [r11_20_TrMRF] is 1.48

The recorded folding stability dG unfold for SAGGSETVEIELGSEDGTVYKIEIERFPETGLLLIKVDGPDPKVIEKVVKELGVDVVEVLEDGYVLLASAGG [r13_937_TrMRF] is 1.78

The recorded folding stability dG unfold for SAGGSAGGKEFKIVKVEIEEREDGRLKIHITVEPGATPEEVKKALEELGFEVEEVEVVEVEEEESAGGSAGG [r6_543_TrROS_Hall] is 2.24
